Give measured MCV for each item. Keep answers brief.
- Species on record: Rattus norvegicus
- PROTOCOL_SUMMARY: Open TG-GATES - Regimen: Single
- Type: toxicity, organism-based, Sprague-Dawley
- Design: regimen Single, gender Male, age 6 weeks
- SETTINGS: in vivo, po, 100 mg/kg, 24 h, tissue Blood, route gavage, dose level Low
Number in fL, nothing else.

Record summary for CN(C)C(=N)N=C(N)N [METFORMIN] : reported MCV = 64.8

Record summary for CN(C)CCC=C1c2ccccc2COc2ccccc21 [DOXEPIN] : reported MCV = 64.4

Record summary for CCC1(c2ccccc2)C(=O)NC(=O)NC1=O [PHENOBARBITAL] : reported MCV = 61.3

Record summary for O=NN1CCOCC1 [N-NITROSOMORPHOLINE] : reported MCV = 62.4

Recorded values, source ChEMBL document CHEMBL3885861.
